test system: Huh7 cells; assay: Cell toxicity / cell ratio in the ZIKV high content assay; conditions: Table S2; 50% reduction in cell viability vs infected IFNα2A treated cells, 72 h
Binarize CC50 at 20 µM; below is TRUE, at or above is FALSE.

1. CC(C)c1ccc2c(c1)c(SC(C)(C)C)c(CC(C)(C)C(=O)O)n2Cc1ccc(Cl)cc1 :: FALSE
2. N=C(NCc1ccc(Cl)cc1)SCCCc1c[nH]cn1 :: TRUE
3. COCCCC/C(=N\OCCN)c1ccc(C(F)(F)F)cc1.O=C(O)/C=C\C(=O)O :: FALSE
4. Clc1ccc2c(c1)C(N1CCNCC1)=Nc1ccccc1O2 :: TRUE
5. CN1CCN(CCCN2c3ccccc3Sc3ccc(Cl)cc32)CC1.O=C(O)/C=C\C(=O)O.O=C(O)/C=C\C(=O)O :: TRUE
6. Clc1ccccc1C(c1ccccc1)(c1ccccc1)n1ccnc1 :: TRUE
7. Clc1ccc2c(c1)CCc1cccnc1C2=C1CCNCC1 :: FALSE
8. CN1C2CCC1CC(OC(c1ccccc1)c1ccccc1)C2.CS(=O)(=O)O (stereo not shown) :: FALSE
9. CC(CN1c2ccccc2Sc2ccccc21)N(C)C.Cl (stereo not shown) :: FALSE
10. Oc1cc2c(cc1O)[C@H]1c3ccccc3CN[C@@H]1CC2 :: TRUE
